Where do these numbers come from? They come from patent US20180094062A1.

# target-or-test-system: T1, human recombinant HER3 Extracellular Domain (HER3 ECD) (human, UniProt P21860 20-643)
# T1 construct: 68 kDa; also called human-Her3-ECD
# procedure-text: ELISA, antigen coated, hybridoma supernatant
Items are presented alongside their recorded OD 405 nm.
// units = OD; emit number, no label

binder	OD 405 nm [OD]
anti-HER3 antibody M-17-12 (antibody, V domains shown, mouse hybridoma clone; VH and VL stated identical to those of M-17-02) VH: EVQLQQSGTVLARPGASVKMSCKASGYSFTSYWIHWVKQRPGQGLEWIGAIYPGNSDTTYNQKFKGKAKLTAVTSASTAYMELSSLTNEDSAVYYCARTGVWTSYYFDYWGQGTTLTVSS VL: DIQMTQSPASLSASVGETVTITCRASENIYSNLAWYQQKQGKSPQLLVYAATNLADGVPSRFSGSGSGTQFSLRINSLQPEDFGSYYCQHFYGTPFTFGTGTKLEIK	3.06
anti-HER3 antibody M-17-07 (antibody, V domains shown, mouse hybridoma clone) VH: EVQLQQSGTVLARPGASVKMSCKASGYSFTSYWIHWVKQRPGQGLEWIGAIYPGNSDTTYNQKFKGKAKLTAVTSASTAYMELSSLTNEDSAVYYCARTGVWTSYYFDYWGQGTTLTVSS VL: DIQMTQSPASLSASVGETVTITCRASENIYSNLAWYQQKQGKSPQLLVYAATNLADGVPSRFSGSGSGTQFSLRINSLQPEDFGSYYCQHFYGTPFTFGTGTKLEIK	3.1

// next entry
Query anti-HER3 antibody M-17-02 (antibody, V domains shown, mouse hybridoma clone) VH: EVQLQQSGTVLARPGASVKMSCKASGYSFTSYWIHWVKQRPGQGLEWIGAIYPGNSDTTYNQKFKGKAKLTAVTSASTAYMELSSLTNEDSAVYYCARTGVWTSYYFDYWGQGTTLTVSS VL: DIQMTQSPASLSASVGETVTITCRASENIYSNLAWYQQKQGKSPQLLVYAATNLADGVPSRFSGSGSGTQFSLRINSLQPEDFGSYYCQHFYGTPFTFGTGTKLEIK yields OD 405 nm of 2.96
